Reference source: patent US8802704B2

Biological target: S1P3 (Homo sapiens, UniProt Q99500)
Sequence (Q99500 whole entry, species assumed): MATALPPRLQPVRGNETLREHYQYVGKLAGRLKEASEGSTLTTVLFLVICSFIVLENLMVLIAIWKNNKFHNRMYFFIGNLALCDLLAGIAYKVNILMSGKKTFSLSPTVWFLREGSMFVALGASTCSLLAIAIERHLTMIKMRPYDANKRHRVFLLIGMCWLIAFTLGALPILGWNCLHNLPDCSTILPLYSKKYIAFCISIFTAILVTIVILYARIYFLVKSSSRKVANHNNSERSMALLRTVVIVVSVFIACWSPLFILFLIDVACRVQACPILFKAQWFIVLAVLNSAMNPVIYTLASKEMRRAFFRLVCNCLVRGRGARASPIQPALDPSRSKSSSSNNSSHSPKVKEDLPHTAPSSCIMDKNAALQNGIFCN
Experiment: Receptor binding assay, [33P]sphingosine 1-phosphate competition (SPA), S1P3
Settings: 96 well-plate; read-out: S1P3 binding Ki (M) (96 well-plate)
readout.type: Ki (M)
Answers are plain numbers, in M.

# annotated cases, reported Ki shown
1) Cc1cc(-c2nc(-c3ccc(CN(C)CC(=O)O)cc3)no2)ccc1-c1ccccc1C(F)(F)F : 9.43e-06
2) Cc1cc(-c2nc(-c3cccc(CN(C)CC(=O)O)c3)no2)ccc1-c1ccccc1C(F)(F)F : 9.43e-06

# return Ki for each item in the list
1. Cc1cc(CN(C)CC(=O)O)ccc1-c1noc(-c2ccc(-c3ccccc3C)c(C(F)(F)F)c2)n1
2. Cc1ccccc1-c1ccc(-c2nc(-c3ccc(CN(C)CC(=O)O)c(F)c3)no2)cc1C(F)(F)F
3. Cc1ccccc1-c1ccc(-c2nc(-c3ccc(CN(C)CC(=O)O)cc3)no2)cc1C(F)(F)F
4. COCc1cc(-c2nc(-c3ccc(CN(C)CC(=O)O)cc3)no2)ccc1-c1ccccc1C(F)(F)F
5. COCc1cc(-c2nc(-c3ccc(CN(C)CC(=O)O)c(F)c3)no2)ccc1-c1ccccc1C(F)(F)F
6. COCc1cc(-c2nc(-c3cccc(CN(C)CC(=O)O)c3)no2)ccc1-c1ccc(F)cc1C(F)(F)F

1: 4.12e-07; 2: 4.43e-07; 3: 8.31e-07; 4: 1.57e-06; 5: 6.5e-07; 6: 7.71e-07

Report Ki for each item below.
1. COCc1cc(-c2nc(-c3ccc(CN(C)CC(=O)O)c(C(F)(F)F)c3)no2)ccc1-c1ccccc1C
2. COCc1cc(-c2nc(-c3cccc(CN(C)CC(=O)O)c3)no2)ccc1-c1ccccc1C(F)(F)F
3. CN(CC(=O)O)Cc1ccc(-c2noc(-c3ccc(-c4ccccc4F)c(C(F)(F)F)c3)n2)cc1
4. Cc1ccccc1-c1ccc(-c2nc(-c3ccc(CN(C)CCCC(=O)O)cc3)no2)cc1C(F)(F)F
5. CCN(CCC(=O)O)Cc1cccc(-c2noc(-c3ccc(-c4ccccc4C)c(C(F)(F)F)c3)n2)c1

["1.83e-06", "1.5e-06", "6.29e-07", "3.33e-07", "4.67e-08"]

Would you mind giving Ki for every compound in the list below?
1. COCc1cc(-c2nc(-c3cccc(CN(C)CC(=O)O)c3F)no2)ccc1-c1ccccc1C(F)(F)F
2. Cc1ccccc1-c1ccc(-c2nc(-c3cccc(CN(C)CC(=O)O)c3F)no2)cc1C(F)(F)F
3. Cc1ccccc1-c1ccc(-c2nc(-c3cccc(CN(C)CC(=O)O)c3)no2)cc1C(F)(F)F

1.09e-06
1.49e-07
2.36e-07

---

Target: S1P3 (Homo sapiens)
Assay: Receptor binding assay, [33P]sphingosine 1-phosphate competition (SPA), S1P3
Conditions: 384 well-plate; read-out: S1P3 binding Ki (M) (384 well-plate)
readout.type: Ki

1. Cc1ccccc1-c1ccc(-c2nc(-c3ccc(CN(C)CC(=O)O)cc3)no2)cc1C(F)(F)F : 8.55e-07 M

Below are 2 compounds. Give each one its Ki.
1. CN(CC(=O)O)Cc1cc(F)cc(-c2noc(-c3ccc(-c4ccccc4C(F)(F)F)c(Cl)c3)n2)c1
2. Cc1ccccc1-c1ccc(-c2nc(-c3ccc(CN(C)CCCC(=O)O)cc3)no2)cc1C(F)(F)F

["2.32e-06 M", "1.31e-06 M"]

---

Biological target: UniProtKB P21453
Sequence (P21453 whole entry): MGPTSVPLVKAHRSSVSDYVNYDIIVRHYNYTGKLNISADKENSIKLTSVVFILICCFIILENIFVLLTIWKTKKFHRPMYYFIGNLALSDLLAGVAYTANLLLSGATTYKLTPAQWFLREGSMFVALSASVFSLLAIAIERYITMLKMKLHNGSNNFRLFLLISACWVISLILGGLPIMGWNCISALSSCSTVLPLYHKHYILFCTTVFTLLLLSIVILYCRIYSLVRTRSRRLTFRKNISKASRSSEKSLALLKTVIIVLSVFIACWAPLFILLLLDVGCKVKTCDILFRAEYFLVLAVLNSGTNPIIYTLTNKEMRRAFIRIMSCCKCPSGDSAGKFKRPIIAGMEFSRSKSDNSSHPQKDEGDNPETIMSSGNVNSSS
Assay: S1P1 internalization assay in S1P1-U2OS cells (cell imaging)
Assay type: cell-based
Conditions: U2OS cells expressing S1P1-EGFP, 1 hour
Provide the recorded pEC50 for the entries that follow.
Numbers only, as −log10 of the molar value.

1. COCc1cc(-c2nc(-c3ccc(CN(C)CC(=O)O)cc3)no2)ccc1-c1ccccc1C(F)(F)F [Example 97] : 7.92
2. Cc1ccccc1-c1ccc(-c2nc(-c3ccc(CN(C)CC(=O)O)c(F)c3)no2)cc1C(F)(F)F [Example 70] : 7.89
3. CN(CC(=O)O)Cc1cccc(-c2noc(-c3ccc(-c4ccccc4)c(C(F)(F)F)c3)n2)c1 [Example 68] : 7.95

Give measured pEC50 for every item shown.
1. Cc1ccccc1-c1ccc(-c2nc(-c3cccc(CN(C)CC(=O)O)c3)no2)cc1C(F)(F)F [Example 14]
2. Cc1ccccc1-c1ccc(-c2nc(-c3cc(F)c(CN(C)CC(=O)O)c(F)c3)no2)cc1C(F)(F)F [Example 148]
3. CCc1cc(-c2noc(-c3ccc(-c4ccccc4C)c(C(F)(F)F)c3)n2)ccc1CN(C)CC(=O)O [Example 155]
4. CN(CC(=O)O)Cc1ccc(-c2noc(-c3ccc(-c4ccccc4C(F)(F)F)c(Cl)c3)n2)cc1F [Example 134]
5. Cc1cc(-c2nc(-c3ccc(CN(C)CC(=O)O)cc3)no2)ccc1-c1ccccc1C(F)(F)F [Example 100]
6. Cc1ccccc1-c1ccc(-c2nc(-c3ccc(CN(C)CC(=O)O)cc3Cl)no2)cc1C(F)(F)F [Example 145]

8.06
7.61
7.76
7.43
7.25
8.03

Provide the reported pEC50 of each entry below, same order.
1. Cc1cc(-c2nc(-c3cccc(CN(C)CC(=O)O)c3)no2)ccc1-c1ccccc1C(F)(F)F [Example 101]
2. CCc1ccccc1-c1ccc(-c2nc(-c3ccc(CN(C)CC(=O)O)c(F)c3)no2)cc1C(F)(F)F [Example 110]

7.16
7.25
